Molecular target: Human DAAO (Homo sapiens, UniProt P14920)
Sequence (P14920 whole entry): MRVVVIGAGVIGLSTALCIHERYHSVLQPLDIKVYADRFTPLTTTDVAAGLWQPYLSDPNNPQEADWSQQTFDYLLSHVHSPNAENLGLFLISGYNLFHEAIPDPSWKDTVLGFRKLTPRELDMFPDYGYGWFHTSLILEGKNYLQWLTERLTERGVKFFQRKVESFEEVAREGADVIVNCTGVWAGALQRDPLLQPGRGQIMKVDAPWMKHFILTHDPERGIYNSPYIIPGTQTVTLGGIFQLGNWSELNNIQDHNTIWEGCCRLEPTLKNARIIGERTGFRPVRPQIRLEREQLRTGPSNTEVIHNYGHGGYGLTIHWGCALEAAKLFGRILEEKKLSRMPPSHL
Experiment: D-Amino Acid Oxidase enzyme assay (D-serine, horseradish peroxidase/Amplex Red coupled fluorescence)
Type: biochemical
Conditions: D-serine 5 mM, pH 7.4
IC50 by entry:
endpoint_label: IC50

1) O=C(O)c1cc2c([nH]1)C[C@@H]1[C@@H](c3ccccc3)[C@H]21 (racemic)	≤ 100 µM
2) CC(=O)c1cccc(CC2CCc3[nH]c(C(=O)O)cc32)c1 (stereo not shown)	≤ 1 µM
3) O=C(O)c1cc2c([nH]1)C(Cc1cccc(Br)c1)CC2 (racemic) [Compound 125]	≤ 0.1 µM
4) O=C(O)c1cc2c([nH]1)C(CCCc1ccccc1)CC2 (single isomer, unassigned) [Compound 136]	≤ 1 µM
5) CC(C)c1ccc(CC2CCc3[nH]c(C(=O)O)cc32)cc1 (stereo not shown)	≤ 1 µM
6) O=C(O)c1cc2c([nH]1)CCC2Cc1ccc(-c2ccccc2)cc1 (stereo not shown)	≤ 1 µM
7) COc1ccc(CC2CCc3[nH]c(C(=O)O)cc32)cc1OC (stereo not shown)	≤ 1 µM
8) O=C(O)c1cc2c([nH]1)CCC2Cc1cccc(-c2ccc(O)cc2)c1 (stereo not shown)	≤ 100 µM
9) O=C(O)c1cc2c([nH]1)CCC2Cc1ccc(Br)cc1 (racemic) [Compound 60]	≤ 0.1 µM
10) O=C(O)c1cc2c([nH]1)CCC2Cc1ccc(Cl)cc1 (single isomer, unassigned) [Compound 16]	≤ 100 µM
11) O=C(O)c1cc2c([nH]1)CCC2c1cc(F)cc(F)c1 (single isomer, unassigned) [Compound 100]	≤ 0.1 µM
12) O=C(O)c1cc2c([nH]1)CCC2Cc1cccc(Cl)c1 (stereo not shown)	≤ 0.1 µM
13) Cc1cc(C)cc(CC2CCc3[nH]c(C(=O)O)cc32)c1 (stereo not shown)	≤ 100 µM

====

Target: Human DAAO (Homo sapiens, UniProt P14920)
Assay: D-Amino Acid Oxidase enzyme assay (D-serine, horseradish peroxidase/Amplex Red coupled fluorescence)
Type: biochemical
Conditions: D-serine 5 mM, pH 7.4
endpoint_label: IC50

1) O=C(O)c1cc2c([nH]1)CCC2Cc1ccc2ccccc2c1 (racemic) [Compound 78]	≤ 0.1 µM
2) COc1cccc(CC2CCc3cc(C(=O)O)[nH]c32)c1 (racemic) [Compound 129]	≤ 0.1 µM
3) O=C(O)c1cc2c([nH]1)CCC2Cc1ccc(F)cc1 (single isomer, unassigned) [Compound 40]	≤ 0.1 µM
4) O=C(O)c1cc2c([nH]1)CCC2Cc1ccc(F)c(F)c1 (single isomer, unassigned) [Compound 44]	≤ 0.1 µM
5) O=C(O)c1cc2c([nH]1)CCC2Cc1cccc(-c2ccc(CO)cc2)c1 (stereo not shown)	≤ 1 µM
6) O=C(O)c1cc2c([nH]1)C(CCc1ccccc1)CC2 (single isomer, unassigned) [Compound 28]	≤ 1 µM
7) COc1cccc(CC2CCc3[nH]c(C(=O)O)cc32)c1 (single isomer, unassigned) [Compound 67]	≤ 100 µM
8) O=C(O)c1cc2c([nH]1)CCC2Cc1ccc2ccccc2c1 (single isomer, unassigned) [Compound 80]	≤ 0.1 µM
9) O=C(O)c1cc2c([nH]1)CCC2CC(F)(F)F (stereo not shown)	≤ 100 µM
10) O=C(O)c1cc2c([nH]1)CCC2Cc1ccc(Cl)c(Cl)c1 (single isomer, unassigned) [Compound 58]	≤ 100 µM
11) O=C(O)c1cc2c([nH]1)CCC2Cc1cccc(-c2ccco2)c1 (racemic) [Compound 87]	≤ 100 µM
12) O=C(O)c1cc2c([nH]1)CCC2c1cccc(F)c1 (single isomer, unassigned) [Compound 96]	≤ 0.1 µM
13) O=C(O)c1cc2c([nH]1)CCC2Cc1cccc(-c2ccc(C(F)(F)F)cc2)c1 (stereo not shown)	≤ 1 µM
14) O=C(O)c1cc2c([nH]1)CCC2Cc1cccc(-c2cccnc2)c1 (stereo not shown)	≤ 1 µM
15) O=C(O)c1cc2c([nH]1)C[C@@H]1C[C@H]21 (racemic)	≤ 0.1 µM
16) N#Cc1cccc(C2CCc3cc(C(=O)O)[nH]c32)c1 (stereo not shown)	≤ 1 µM

====

IC50 by entry:
Target: UniProt P14920
Assay: D-Amino Acid Oxidase enzyme assay (D-serine, horseradish peroxidase/Amplex Red coupled fluorescence)
Type: biochemical
Details: D-serine 5 mM, pH 7.4
endpoint_label: IC50

1. CC1CCc2[nH]c(C(=O)O)cc21 (racemic) [Compound 4]	≤ 1 µM
2. O=C(O)c1cc2c([nH]1)CCC2Cc1ccc(F)cc1F (racemic) [Compound 45]	≤ 0.1 µM
3. O=C(O)c1cc2c([nH]1)C(CCc1ccccc1)CC2 (single isomer, unassigned) [Compound 29]	≤ 100 µM
4. O=C(O)c1cc2c([nH]1)C[C@@H]1[C@H](CCc3ccccc3)[C@H]21 (racemic) [Compound 143]	≤ 0.1 µM
5. O=C(O)c1cc2c([nH]1)CCC2c1cccc(Cl)c1 (centres unmarked) [Compound 102]	≤ 0.1 µM
6. O=C(O)c1cc2c([nH]1)C(c1ccc(F)c(F)c1)CC2 (centres unmarked) [Compound 112]	≤ 1 µM
7. C[C@H]1[C@H]2Cc3[nH]c(C(=O)O)cc3[C@@H]12 (racemic) [Compound 141]	≤ 0.1 µM
8. Cc1cccc(CC2CCc3[nH]c(C(=O)O)cc32)c1 (centres unmarked) [Compound 70]	≤ 0.1 µM
9. O=C(O)c1cc2c([nH]1)CCC2Cc1cccc(-c2ccc[nH]2)c1 (single isomer, unassigned) [Compound 93]	≤ 0.1 µM
10. CCOC(=O)c1[nH]c2c(c1O)CCC2 [Compound 137]	> 100 µM
11. O=C(O)c1cc2c([nH]1)CCC2Cc1cccc(C2CCOC2)c1 (centres unmarked) [Compound 90]	≤ 1 µM
12. O=C(O)c1cc2c([nH]1)C(c1ccc(-c3ccccc3)cc1)CC2 (single isomer, unassigned) [Compound 119]	≤ 1 µM
13. O=C(O)c1cc2c([nH]1)CCC2CCc1ccccc1 (single isomer, unassigned) [Compound 19]	≤ 1 µM
14. O=C(O)c1cc2c([nH]1)C(Cc1cc(F)cc(Cl)c1)CC2 (centres unmarked) [Compound 124]	≤ 0.1 µM
